All figures here come from patent US20080280890A1.

Reported Mean OD (×10^−3), cancer cell viability values for a set of compounds
Tested on: Human neuroblastoma SKN-SH cells, resistant to doxorubicin
MEASUREMENT PROTOCOL: Chemoresistance: cancer cell viability (MTT) in presence or absence of doxorubicin
Type: cell-based
CONDITION SUMMARY: compound 50 ug/mL; Dox. absent (−); MTT

Field: example entries. Status: answers known.
{"columns": ["COMPOUND", "Mean OD (×10^−3), cancer cell viability"],
 "data": [
  ["CC1(C)CC(O)(c2ccccc2)CC(C)(C)N1O.Cl [Compound 42]", "1068.67 ×10^−3"],
  ["COc1cc(COC2CC(C)(C)N(O)C(C)(C)C2)cc(OC)c1OC.Cl [Compound 48]", "1118.00 ×10^−3"],
  ["CC1(C)CC(c2nn[nH]n2)CC(C)(C)N1O.Cl [Compound 30]", "1301.25 ×10^−3"],
  ["CC1(C)CC(Oc2nsnc2N2CCOCC2)CC(C)(C)N1O.Cl [Compound 4]", "468.50 ×10^−3"],
  ["CC1(C)COC(=O)C(C)(C)N1O.Cl [Compound 39]", "1201.00 ×10^−3"]
]}

Please list Mean OD (×10^−3), cancer cell viability recorded for the compound CC1(C)CC(Oc2nsnc2C#N)CC(C)(C)N1O [Compound 45] 1063.33 ×10^−3

Please list Mean OD (×10^−3), cancer cell viability recorded for the compound CC1(C)CC(OCc2ccccc2)CC(C)(C)N1O.Cl [Compound 43] 1159.00 ×10^−3

Please list Mean OD (×10^−3), cancer cell viability recorded for the compound CC1(C)CC(NC(=O)C2CC2)CC(C)(C)N1O.Cl [Compound 31] 1175.25 ×10^−3

Please list Mean OD (×10^−3), cancer cell viability recorded for the compound COc1cc(CNC2CC(C)(C)N(O)C(C)(C)C2)cc(OC)c1OC.Cl.Cl [Compound 58] 1207.00 ×10^−3

Please list Mean OD (×10^−3), cancer cell viability recorded for the compound CC1(C)CC(NC(=O)C2CC2)C(C)(C)N1O.Cl (centres unmarked) [Compound 38] 1202.75 ×10^−3

Please list Mean OD (×10^−3), cancer cell viability recorded for the compound CC1(C)CC(Oc2nsnc2N2CCSCC2)CC(C)(C)N1O.Cl [Compound 55] 1037.25 ×10^−3

---

MEASUREMENT KIND: melting point

Field: example entries. Status: answers known.
{"columns": ["MOL SMILES", "melting point"],
 "data": [
  ["CC1(C)CC(O)(c2ccc(F)cc2)CC(C)(C)N1O.Cl", "220 °C (dec.)"],
  ["CCCCC1(O)CC(C)(C)N(O)C(C)(C)C1.Cl", "187 °C (dec.)"],
  ["CC1(C)CC(Oc2nc3ccccc3s2)CC(C)(C)N1O.Cl", "160 °C (dec.)"]
]}

Continue with the next molecule.
Please list melting point recorded for the molecule `CC1(C)c2ccc(C(=O)O)cc2C(C)(C)N1O.Cl` 225.5 °C (dec.)

---

Test system: Human neuroblastoma SKN-SH cells, resistant to doxorubicin
MEASUREMENT PROTOCOL: Chemoresistance: cancer cell viability (MTT) in presence or absence of doxorubicin
Format: cell-based
CONDITION SUMMARY: compound 50 ug/mL; Dox. 10^−6 M present (+); MTT
MEASUREMENT KIND: Mean OD (×10^−3), cancer cell viability

Field: example entries. Status: answers known.
{"columns": ["MOLECULE", "REPORTED"],
 "data": [
  ["CC1(C)C=C(C(N)=O)C(C)(C)N1O [Compound 23]", "416.25 ×10^−3"],
  ["CC1(C)CC(Oc2nsnc2-c2ccccc2)CC(C)(C)N1O.Cl [Compound 44]", "13.25 ×10^−3"],
  ["CCCCC1(O)CC(C)(C)N(O)C(C)(C)C1.Cl [Compound 41]", "261.25 ×10^−3"],
  ["CC1(C)CC(NC(=O)CCN2CCOCC2)CC(C)(C)N1O.Cl [Compound 26]", "261.50 ×10^−3"],
  ["CN1CCN(c2nsnc2OC2CC(C)(C)N(O)C(C)(C)C2)CC1 [Compound 52]", "195.00 ×10^−3"],
  ["CC1(C)C=C(CC2CNCCO2)C(C)(C)N1O.Cl.Cl (centres unmarked) [Compound 36]", "297.00 ×10^−3"]
]}

Please list Mean OD (×10^−3), cancer cell viability recorded for the molecule Cc1cc(O)c(O)cc1C(=O)NC1CC(C)(C)N(O)C(C)(C)C1.Cl [Compound 27] 403.75 ×10^−3

Please list Mean OD (×10^−3), cancer cell viability recorded for the molecule COc1cc(CNC2CC(C)(C)N(O)C(C)(C)C2)cc(OC)c1OC.Cl.Cl [Compound 58] 291.50 ×10^−3

Please list Mean OD (×10^−3), cancer cell viability recorded for the molecule CC1(C)CC(CO)C(C)(C)N1O.Cl (centres unmarked) [Compound 33] 300.00 ×10^−3

Please list Mean OD (×10^−3), cancer cell viability recorded for the molecule Cc1nsnc1OCC1=CC(C)(C)N(O)C1(C)C [Compound 47] 261.00 ×10^−3

Please list Mean OD (×10^−3), cancer cell viability recorded for the molecule CC1(C)CC(C#N)CC(C)(C)N1O.Cl [Compound 12] 287.25 ×10^−3
